Hello, the source for this data is PubChem BioAssay (NCATS), in case you need it.

- test-summary: Drug repurposing screens with cells derived from glioblastoma tumor samples (AID 1345199); note: % is set by controls: 0 for no effect and ±100 for the full control effect; nearly all actives have a fitted effect of over 40% in size
- cond: GBM patient neurospheres viability, ATP luminescence, 48 h; at 46.1 µM (top of the series); tumour line C
Results filed as inconclusive are left out. The source made the active and inactive calls. Calls come from the whole dose curve; as a rule, active = well fitted inhibition curve with a large enough effect; inconclusive = small, poorly fitted or top-dose-only effect; inactive = flat fitted curve, though single readings scatter.
Measured activity, negative = cell killing values are reported for all entries that follow.
measured-parameter: activity, negative = cell killing

INSERT INTO assay_data (compound, endpoint_result) VALUES
  ('O=C(OCCO)c1ccccc1O', '-4.97% (inactive)'),
  ('CN1CC(O)c2cc(N=NC(N)=O)c(O)cc21 (stereo not given)', '26.2% (inactive)'),
  ('CS(=O)(=O)OCCCNCCCOS(C)(=O)=O', '2.38% (inactive)'),
  ('CCCCCCCCCCCCCCCCCC(=O)OCCO', '-6.14% (inactive)'),
  ('CO[C@H]1[C@@H](O)[C@H](N)[C@@H](O[C@H]2O[C@H]([C@H](C)N)CC[C@H]2N)[C@H](O)[C@@H]1N(C)C(=O)CN', '-7.2% (inactive)'),
  ('CCN(CC)CCOC(=O)c1ccc(N)cc1Cl', '-6% (inactive)'),
  ('CC(=O)O[C@H]1C[C@@H]2CC[C@@H]3[C@H](CC[C@@]4(C)[C@H]3C[C@H](N3CC[N+](C)(C)CC3)[C@@H]4OC(C)=O)[C@@]2(C)C[C@@H]1N1CC[N+](C)(C)CC1', '2.56% (inactive)'),
  ('C[C@]12CC[C@@H]3c4ccc(OS(=O)(=O)O)cc4CC[C@H]3[C@@H]1CCC2=O', '-5.66% (inactive)'),
  ('O=P(O)(O)OC(CO)CO', '3.76% (inactive)'),
  ('CC#CCC(C)[C@H](O)/C=C/[C@@H]1[C@H]2c3cccc(CCCC(=O)O)c3O[C@H]2C[C@H]1O (stereo not given in full)', '-26.2% (inactive)');

###

- Tested on: SKOV3
- test-summary: Primary qHTS to identify gynecologic anti-cancer compounds using libraries of approved drugs and bioactive compounds (AID 1345084); note: % is set by controls: 0 for no effect and ±100 for the full control effect; nearly all actives have a fitted effect of over 55% in size
- cond: Gynecologic cancer cell panel viability, ATPlite luminescence, 48 h; series mostly up to 57.5 µM
- From the text: National Center for Advancing Translational Sciences [NCATS] Assay Overview: Chemotherapeutic drug responses vary from cancer to cancer and from patient to patient. […] ATPlite is a luminescence based assay reliant on the conversion of a luciferase substrate to light in the presence of ATP. As a cytotoxic compound will suppress growth and decrease the number of cells, the concentration of ATP will decrease, and less light signal will be detected in the well. […]
Results filed as inconclusive are left out. The source made the active and inactive calls. The call rests on the fitted dose curve; in most records, active means well fitted cell-killing curve with a large enough effect; inconclusive means small, poorly fitted or top-dose-only effect, or effect the other way; inactive means flat fitted curve, though single readings scatter.
measured-parameter: activity change, negative = cytotoxicity

INSERT INTO results (compound, endpoint_result) VALUES
  ('C[C@@H]1O[C@@H](O[C@H]2[C@H](O[C@H]3CC[C@@]4(C)C(CC[C@]5(C)C4C=C[C@]46OC[C@@]7(CCC(C)(C)C[C@H]74)[C@@H](O[C@@H]4O[C@@H](C)[C@H](O)[C@@H](O)[C@H]4O)C[C@]65C)[C@]3(C)CO)O[C@H](CO)[C@@H](O)[C@@H]2O[C@@H]2O[C@H](CO)[C@@H](O)[C@H](O)[C@H]2O)[C@H](O)[C@H](O)[C@H]1O (stereo partly drawn)', '-8.52% [at 11.6 µM] (inactive)'),
  ('CC1(C)CC[C@]23CO[C@@]4(CCC5[C@@]6(C)CC[C@H](O[C@@H]7OC[C@H](O[C@@H]8O[C@H](CO)[C@@H](O)[C@H](O)[C@H]8O[C@@H]8OC[C@@H](O)[C@H](O)[C@H]8O)[C@H](O)[C@H]7O)[C@@](C)(CO)C6CC[C@@]5(C)[C@]4(C)CC2=O)[C@@H]3C1 (stereo partly drawn)', '-7.83% [at 11.6 µM] (inactive)'),
  ('C/C=C(/C)C(=O)OC1CC(C)(C)CC2C3=CCC4C5(C)CCC(O[C@@H]6O[C@H](C(=O)O)[C@@H](O)[C@H](O)[C@H]6O[C@@H]6O[C@H](CO)[C@H](O)[C@H](O[C@@H]7OC[C@H](O)[C@H](O)[C@H]7O[C@@H]7O[C@H](CO)[C@@H](O)[C@H](O)[C@H]7O)[C@H]6O)C(C)(C)C5CCC4(C)C3(C)C(O)C(O)C12CO (stereo partly drawn)', '-5.71% [at 6.55 µM] (inactive)');
